read-out: Vascular cell adhesion molecule 1 (VCAM1), VCAM1 (gene 7412); assay: BSK_4H_VCAM1: BioMAP Diversity Plus: 4H Assay for Vascular cell adhesion molecule 1 (VCAM1) Biomarker Activity (AID 2283033); details: primary human endothelial cells (HUVEC); actives raise or lower the signal;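 for outcome: cell-surface VCAM-1 protein measured by ELISA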
The source made the active and inactive calls. Rule for the calls: active = hit-call score of the fitted dose curve at least 0.9, where 1 is the maximum; inactive = score below 0.9.
Please state which outcome applies, choosing from YES (active), NO (inactive)

Short answer needed: outcome of this test for `CCCOc1sc(C(=O)N2CCC(c3cc(CN)ccc3F)CC2)c(C)c1Br` ? YES

Short answer needed: outcome of this test for `CCCOC(=O)c1ccc(O)cc1` ? NO

Short answer needed: outcome of this test for `Oc1cccc(O)c1` ? NO

---

molecular target: rat Serotonin, 5-Hydroxytryptamine Receptor 1 (5HT1), Non-Selective Binding, Htr1a (gene 24473); experiment: NVS_GPCR_r5HT1_NonSelective: NovaScreen (NVS) G Protein-Coupled Receptor Assay for rat Serotonin, 5-Hydroxytryptamine Receptor 1 (5HT1), Non-Selective Binding (AID 2283286)
Results filed as inconclusive are left out. Calls of active or inactive are those of the source. Rule for the calls: active = hit-call score of the fitted dose curve at least 0.9, where 1 is the maximum; inconclusive = response in the unintended direction; inactive = score below 0.9.
Please state which outcome applies, choosing from active, inactive

Short answer needed: outcome of this test for `CN1CCN(c2ccccc2/C=C2\SCCN(c3ccc(Cl)c(Cl)c3)C2=O)CC1` ? active

Short answer needed: outcome of this test for `CC1=C(/C=C/C(C)=C/C=C/C(C)=C/C(=O)O)C(C)(C)CCC1` ? active

Short answer needed: outcome of this test for `CCCOc1sc(C(=O)N2CCC(c3cc(CN)ccc3F)CC2)c(C)c1Br` ? active

Short answer needed: outcome of this test for `C=C(C)C(=O)OCCC(F)(F)C(F)(F)C(F)(F)C(F)(F)C(F)(F)C(F)(F)F` ? inactive

---

assay: ATG_M_06_TRANS: Attagene TRANS-FACTORIAL HepG2 Assay for M06 Transcription Factor (Internal Marker) (AID 2282983); conditions: HepG2 Attagene TRANS M06 internal marker reporter;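 note: reporter transcript level by RT-PCR then capillary electrophoresis fluorescence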
Inconclusive results are not listed. Calls of active or inactive are those of the source. How the source made its calls: active means hit-call score of the fitted dose curve at least 0.9, where 1 is the maximum; inconclusive means response in the unintended direction; inactive means score below 0.9.
Result type: outcome

What outcome value was documented for this molecule, `Cc1cc(CCN2CCN(c3nsc4ccccc34)CC2)cc2c1NC(=O)CC2(C)C` ? inactive

What outcome value was documented for this molecule, `CC(C)(C)c1cc(C(C)(C)C)c(O)c(C(C)(C)C)c1` ? inactive

What outcome value was documented for this molecule, `c1ccc2c(c1)ccc1ccccc12` ? inactive

What outcome value was documented for this molecule, `O=C(O)Cc1cc(I)c(Oc2cc(I)c(O)c(I)c2)c(I)c1` ? inactive

What outcome value was documented for this molecule, `CCCCCCCCCCCCCC[N+](C)(C)C` ? inactive

Next:
What outcome value was documented for this molecule, COCC(C)OCC(C)O (configuration not stated) ? inactive

What outcome value was documented for this molecule, `c1ccc2c(c1)Cc1ccccc1-2` ? inactive

---

read-out: Vascular cell adhesion molecule 1 (VCAM1), VCAM1 (gene 7412); test: BSK_LPS_VCAM1: BioMAP Diversity Plus: LPS Assay for Vascular cell adhesion molecule 1 (VCAM1) Biomarker Activity (AID 2283086); details: primary human HUVEC with PBMC; actives raise or lower the signal
The source made the active and inactive calls. The calls were made as follows: active = hit-call score of the fitted dose curve at least 0.9, where 1 is the maximum; inactive = score below 0.9.
Please state which outcome applies, choosing from active, inactive

Short answer needed: outcome of this test for CCCCC(CC)COC(=O)CCCCC(=O)OCC(CC)CCCC (configuration not stated) ? inactive

Short answer needed: outcome of this test for `CC[C@H](c1ccc(O)cc1)[C@@H](CC)c1ccc(O)cc1` ? active

Short answer needed: outcome of this test for `CN1CCC[C@H]1c1cccnc1` ? inactive

Short answer needed: outcome of this test for `CCCCCCCCCCCCCC[N+](C)(C)C` ? active

Short answer needed: outcome of this test for `CCC(=C(c1ccc(O)cc1)c1ccc(OCCN(C)C)cc1)c1ccccc1` ? active

Short answer needed: outcome of this test for `O=[N+]([O-])c1ccc(O)cc1` ? inactive

Short answer needed: outcome of this test for `CCCCOCCO` ? inactive

Short answer needed: outcome of this test for `CC(C)(C)c1cc(C(C)(C)C)c(O)c(C(C)(C)C)c1` ? inactive

Short answer needed: outcome of this test for `CCCOc1sc(C(=O)N2CCC(c3cc(CN)ccc3F)CC2)c(C)c1Br` ? active

Short answer needed: outcome of this test for `Cc1oc(-c2ccccc2)nc1CCOc1ccc(C[C@H](Nc2ccccc2C(=O)c2ccccc2)C(=O)O)cc1` ? active

Short answer needed: outcome of this test for `CCCCCCCCOC(=O)CCCCCCCCC(=O)OCCCCCCCC` ? inactive

Short answer needed: outcome of this test for `CC(C)(C)c1ccc(O)c(C(C)(C)C)c1` ? active

---

experiment: ATG_AP_1_CIS: Attagene CIS-FACTORIAL HepG2 Assay for human Activator Protein 1 (AP-1) (AID 2282931); settings: HepG2 Attagene cis-factorial AP-1 reporter mRNA; actives raise or lower the signal
Calls of active or inactive are those of the source. The calls were made as follows: active = hit-call score of the fitted dose curve at least 0.9, where 1 is the maximum; inactive = score below 0.9.
Please state which outcome applies, choosing from True = active, False = inactive

Short answer needed: outcome of this test for `O=[N+]([O-])c1ccc(O)cc1` ? False

Short answer needed: outcome of this test for `CCN(CC)CCNc1ccc(CNC=O)c2sc3ccc(OC)cc3c(=O)c12` ? True

Short answer needed: outcome of this test for `O=C1OC2(c3ccccc31)c1cc(Br)c(O)c(Br)c1Oc1c2cc(Br)c(O)c1Br` ? False

Short answer needed: outcome of this test for `C=C(C)C(=O)OCCC(F)(F)C(F)(F)C(F)(F)C(F)(F)C(F)(F)C(F)(F)F` ? False

Short answer needed: outcome of this test for `CCCCCCCCOC(=O)CCCCCCCCC(=O)OCCCCCCCC` ? False

Short answer needed: outcome of this test for `CC(C)(C)CC(C)(C)c1ccc(O)c(-n2nc3ccccc3n2)c1` ? True

Short answer needed: outcome of this test for `CCCCCCC(=O)O` ? False

Short answer needed: outcome of this test for `O=c1c(-c2ccc(O)cc2)coc2cc(O)ccc12` ? False

Short answer needed: outcome of this test for `CN(C)C=O` ? False

Short answer needed: outcome of this test for `Nc1cccc2c(N)cccc12` ? True

Short answer needed: outcome of this test for `CCCOc1sc(C(=O)N2CCC(c3cc(CN)ccc3F)CC2)c(C)c1Br` ? True

Short answer needed: outcome of this test for `COc1cc(CCC(=O)CC(=O)CCc2ccc(O)c(OC)c2)ccc1O` ? False

Short answer needed: outcome of this test for `ClC1=C(Cl)C(Cl)(Cl)C(Cl)=C1Cl` ? False

Short answer needed: outcome of this test for `C[C@@H]1C[C@H]2[C@@H]3CCC4=CC(=O)C=C[C@]4(C)[C@@]3(F)[C@@H](O)C[C@]2(C)[C@@]1(O)C(=O)COP(=O)(O)O` ? False

Short answer needed: outcome of this test for `Cc1oc(-c2ccccc2)nc1CCOc1ccc(C[C@H](Nc2ccccc2C(=O)c2ccccc2)C(=O)O)cc1` ? False

Short answer needed: outcome of this test for `CC(=O)NC1(c2cccc(F)c2)CCN(CC[C@@]2(c3ccc(Cl)c(Cl)c3)CN(c3ccccc3)C(=O)CO2)CC1` ? True

Short answer needed: outcome of this test for `Cc1ccc(S(=O)(=O)O)c(C)c1` ? False

Short answer needed: outcome of this test for `Oc1cc2ccccc2c2ccccc12` ? False

Short answer needed: outcome of this test for `Oc1cccc(O)c1` ? False

Short answer needed: outcome of this test for `CC(=O)CC(C)(C)O` ? False

Short answer needed: outcome of this test for `c1ccc2c(c1)Cc1ccccc1-2` ? False

Short answer needed: outcome of this test for `CCCCOCCO` ? False

Short answer needed: outcome of this test for `CN1CCC[C@H]1c1cccnc1` ? False

Short answer needed: outcome of this test for `CCOC(=O)CC(O)(CC(=O)OCC)C(=O)OCC` ? False

Short answer needed: outcome of this test for `CC(C)(C)c1cccc(C(C)(C)C)c1O` ? True

Short answer needed: outcome of this test for `Cc1cc(CCN2CCN(c3nsc4ccccc34)CC2)cc2c1NC(=O)CC2(C)C` ? True

Short answer needed: outcome of this test for `COc1ccc([N+](=O)[O-])cc1N` ? False

Short answer needed: outcome of this test for `CCCCCCCCCCCCCCCS(=O)(=O)Oc1ccccc1` ? False

Short answer needed: outcome of this test for CCCCC(CC)COC(=O)CCCCC(=O)OCc1ccccc1 (stereo not drawn) ? False

Short answer needed: outcome of this test for COCC(C)OCC(C)O (stereo not drawn) ? False

Short answer needed: outcome of this test for `c1ccc2c(c1)ccc1ccccc12` ? False

Short answer needed: outcome of this test for `CC(C)(C)c1ccc(O)c(C(C)(C)C)c1` ? True

Short answer needed: outcome of this test for `O=C(O)c1ccccc1C(c1ccc(O)cc1)c1ccc(O)cc1` ? False

Short answer needed: outcome of this test for `FC(F)(I)C(F)(F)C(F)(F)C(F)(F)C(F)(F)C(F)(F)I` ? False

Short answer needed: outcome of this test for CCc1nn(C2CCCCC2)c2cc(C3(C#N)CCC(C(=O)O)CC3)ccc12 (stereo not drawn) ? False

Short answer needed: outcome of this test for `CCCCCCCCCCCCN1CCCC1=O` ? False

Short answer needed: outcome of this test for N#C[C@@H]1CC(F)(F)CN1C(=O)CNC1CC2CCC(C1)N2c1ncccn1 (stereo partly drawn) ? False

Short answer needed: outcome of this test for `CCCCC[C@H](O)CC(=O)CCc1ccc(O)c(OC)c1` ? False
